procedure.details: Inhibition of pig intestinal maltase
Parameters: species or system Sus scrofa
outcome.measure: IC50 (nM)
Only the number, expressed in nM, is required.

[Q] # get_value(readout='IC50', item= N[C@H]1C[C@](O)(CO)[C@@H](O)[C@H](O)[C@H]1O )
[A] 2200

###

system: Lysosomal alpha-glucosidase (Homo sapiens)
Answer each item with its documented pIC50.
On this scale, pIC50 is minus log10 of a concentration expressed in M (mol/L).

[Q] # get_value(readout='pIC50', item= N[C@H]1C[C@](O)(CO)[C@@H](O)[C@H](O)[C@H]1O )
[A] 4.24

[Q] Thanks! And OCC(CO)N[C@H]1C[C@](O)(CO)[C@@H](O)[C@H](O)[C@H]1O ?
[A] 5.25
